Tested on: K4 kissing-loop RNA reporter;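 note: bound reporter read as fluorescence of individual clusters on recovered sequencing chips by microscopy, with normalized cluster intensities fitted with a binding model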
assay_details: apparent KD of K4 kissing-loop reporter; higher = weaker reporter binding
conditions_used: Eterna round: R107; input ligand: arginine 13.2 mM
Rule: class 1 for apparent KD of K4 kissing-loop reporter not less than 200 nM, class 0 for anything less.

Ask | Check if apparent KD of K4 kissing-loop reporter >= 200 nM (inclusive). Item: `GCCGUACGCACGGAUACCAGCACUCGUUGAGUGAUGUUCACGGUGUGGUAUUCAACGGGCUGCCCUUGGCAGCCGUGCGUACGGC`
Reply | class 0

Ask | Check the entry AAACAUCACUGGGAGUGAUGUUCUCAGUGACGAGGACCGGUACGGCCGCCACUCGCGAGAGAUCUAGUCUAGUCUUGACUGCAUU [Excl Tryptophan A V13] : does apparent KD of K4 kissing-loop reporter equal or exceed 200 nM?
Reply | class 1

Ask | Decide: is the reported value of apparent KD of K4 kissing-loop reporter for CGAGUGAUGUUCGAAGAGUUGUUAAGCGAUACCAGCUAGGAGACUGGCCCUUGGCAGCGUAAUAAGUUAAUAAAUAAAUGAUCAC [whbob_Ex_Theo_A_th65] equal to or greater than 200 nM?
Reply | class 1

Ask | Test whether the sequence AGUUUAUAGGAGGAUACCAGUACGGAUAAGGUACGUUAAUAGUAGAGUGAUGUUCUAAAGUACCCUUGGCAGCUUAGAUUGAGUU [#27 K4 Theophylline B Exclusion] records apparent KD of K4 kissing-loop reporter of 200 nM or higher.
Reply | class 0

Ask | Tell me whether apparent KD of K4 kissing-loop reporter is at least 200 nM here: AAACUUGCAGUGAUGUUGCAAGUAGGUGAUACCAGCAUCGAAAGAUGCCCUUGGCAGCACCAAAACAUCACUUAGGUAUCACCAA [(H1)-(H2)-(T1)-(T2)-(H)'-(T)'_Design3]
Reply | class 0

Ask | Tell me whether apparent KD of K4 kissing-loop reporter is at least 200 nM here: GCGCGUCAUGUCAGCGGUGCCUAUGUCGAUACCAGCGCCGCAAGGCGCCCUUGGCAGCGACGCGCUGGAGUGAUGUUCCAGCGUG [#2 Exclusion - Theophylline A Attempt #11 (HarryS)]
Reply | class 0

Ask | Decide: is the reported value of apparent KD of K4 kissing-loop reporter for GUGCGCGCGGCGGCCGCCACUCGCAUGAGAGUGAUGUUCUCGGGACUGACGCAAGUCAGUCAUGUGAGGACCGGGCCGGGCUGCG [#2 Same State - Tryptophan B Attempt #12 (HarryS)] equal to or greater than 200 nM?
Reply | class 1

Ask | Textbook exercise: given the entry UGUACCGAGUCAGGAUAUGUCGUCGAAAGACGAAUCCUAGUGAUGUUAGGGAUCUGCGAAAGCAGUGCAGAAGGGACUUGGUACU [FmnBS 26 U20+G67] , state whether its apparent KD of K4 kissing-loop reporter is greater than or equal to 200 nM.
Reply | class 0

Ask | Hello, I need to know if GAGCGGUGGAGGUUACCGCUAUUCUGAGAAGGAGCGCAGAAGACUGCAGGUAGGUCGCUUAGAGCUUGCAGUGAUGUUGCAAGUU [KL-SSArg-A13] has measured apparent KD of K4 kissing-loop reporter not below 200 nM. Thanks!
Reply | class 0

Ask | Hi, just wondering whether GGAUAGGAUAGAGGAUAUGGUUUAUGCAGGAAUAACUUAUUGUGUAAAUCCAUAGGGAGUGAUGUUCCAGAAGGCUGUCCUAUCG [MatMod 14 - Jieux - Exclusion - FMN B] shows apparent KD of K4 kissing-loop reporter of 200 nM or higher.
Reply | class 1

Ask | Is reported apparent KD of K4 kissing-loop reporter greater than or equal to 200 nM here: UUUCCAGAUAAGUGGGAACACUCCAUAACAGAGGAUAUCAGAGCGCUGAGAAGGCUGUUUUACAGUGAUGUUGUAAGUGUGGAGU [FMN A SS t2]
Reply | class 1
